assay: Rat oral pharmacokinetics (plasma); type: in vivo; details: male, CD Sprague Dawley, 20-30 μmol/kg, mean n = 3
METRIC NAME: AUC(0-t) (µM·h)
Number only, in µM·h; omit the unit.

| SMILES | TEST RESULT |
| --- | --- |
| CCS(=O)(=O)Nc1cccc(CN2CCC[C@@H](Nc3ccc4[nH]ncc4c3)C2)c1 | 2.06 |
| CSc1ccc(CN2CCC[C@@H](Nc3ccc4[nH]ncc4c3)C2)cc1 | 1.17 |
| CCS(=O)(=O)Nc1cccc(CN2CCC[C@H](Nc3ccc4[nH]ncc4c3)C2)c1 | 0.535 |

Note to self: AUC(0-t) recorded for CS(=O)(=O)Nc1cccc(CN2CC[C@@H](Nc3cccc4cnccc34)C2)c1 was 1.28
